Recorded viability at 28.5 h, 10 µM by entry
Measurement Description: in vitro
Run Conditions: human, hela cells, % viability
Measured Parameter: viability at 28.5 h, 10 µM

Molecule	Val
CCNS(=O)(=O)c1ccc2c(c1)N(Cc1nc(C)c(C)o1)CC2	51.5%
CC(=O)c1ccc(C(=O)Nc2ccc3nc(C)sc3c2)cc1	95.5%
CCN(CC)Cc1ccc2[nH]c(=O)c(CNCc3ccc(OC)cc3)cc2c1	106%
Cc1noc(COc2ccc(OCc3nc(C)no3)cc2)n1	95.6%
COCC(=O)N1CCc2sccc2C1c1ccc(NCc2ccc(OC)cc2)cc1 (centres unmarked)	85.1%
c1ccc(-c2ccc(Nc3ccc4c(c3)OCCO4)nc2)cc1	98.3%
Cc1cc(=O)oc2cc(OC(C)C(=O)Nc3sc4c(c3C(N)=O)CCCC4)ccc12 (centres unmarked)	94.6%
S=C(NCCc1ccccc1)NCCn1cc(Cl)cn1	103%
CC(=O)N1N=C(c2cccnc2)OC1(C)C	90.4%
N#Cc1c2c(c(-c3ccccc3)[nH]c1=O)CCCC2	91.6%
CC(C)CC(C(=O)Nc1ccc(C2CCCC2)cc1)N1CCN(C)CC1 (centres unmarked) [CBK024386C]	87%
COc1cc(C)c(NC(=O)c2cnc(-c3ccc(F)cc3)c(-c3ccncc3)c2)cc1OC	97.5%
O=S(=O)(c1ccc(Br)cc1)N1CCCCC1CO (centres unmarked)	116%
O=S(=O)(Nc1cccc(-c2nnn[nH]2)c1)c1ccc(Br)s1	101%
Cc1cc(C)n(C2CCN(Cc3c(C)nc4c(C)cccn34)CC2)n1	101%
CCc1cnc(CN(C)C2CCN(CC(=O)Nc3cccnc3)C2)o1 (centres unmarked)	92%
CCC(=O)c1cccc2c1NC=C1C(=O)CC(C)(C)CC1=N2	108%
O=C(CCn1cnc2ccccc2c1=O)Nc1ccccc1C(F)(F)F	101%
CN1CCN(c2ccc(C(=O)N3CCC(F)CC3)cc2)CC1	109%
Cc1c(CNCCN2CCN(C)CC2c2ccccc2)cnn1C (centres unmarked)	98.8%
COc1ccc(S(=O)(=O)Nc2ccc(C(=O)O)cc2)cc1[N+](=O)[O-]	103%
Cn1nc(-c2ccc(S(=O)(=O)Nc3nnc(C(F)(F)F)s3)s2)cc1C(F)(F)F	103%
O=C(CCS(=O)(=O)c1ccccc1)Nc1cc2ccccc2c(N2CCNCC2)n1 [CBK028419T]	88.1%
CC(C)COC(=O)N1CCC(N(C)Cc2ccc(-c3ccc(S(C)(=O)=O)cc3)nc2)CC1 [CBK165259T]	90.4%
O=C(Nc1ccccc1[N+](=O)[O-])c1ccc(Cl)c(S(=O)(=O)N2CCC(C(=O)O)CC2)c1	101%
COc1ccc(CCCC(=O)Nc2cncc(OC3CCNCC3)n2)cc1OC [CBK028437T]	87.3%
O=C(CCn1c(C(F)F)cc2cccnc21)N1CCCC(CO)C1 (centres unmarked)	99.5%
CCOc1cccc(CNn2cnnc2)c1OCc1ccccc1	81.2%
Nc1ccc(C(=O)Nc2ccc(Nc3cc(-c4ccccc4OCc4ccccc4)ncn3)cc2)cc1	94.4%
Cn1ccnc1SCCNC(=O)c1cccc(Cn2cccn2)c1	105%
CCOC(=O)c1cnc(SC)nc1NCCc1c[nH]cn1	92.6%
CCc1ccc2c(c1)C(=O)CC1(CCN(C(=O)c3cc(OC)c(C)c(OC)c3)CC1)O2	112%
Cn1c(SCC(=O)Nc2ccnc3ccccc23)nnc1-c1ccncc1	105%
CN(C)S(=O)(=O)c1cc(C(=O)NCCc2c[nH]c3ccccc23)c(Cl)cc1Cl	87.5%
O=C(Nc1ccccc1C(=O)N1CCN(Cc2ccccc2)CC1)c1ccccn1	106%
COc1ccc(Cl)cc1C(=O)O/N=C(\N)Cc1cccc2ccccc12	98.3%
CN1CCCN(c2cnn(Cc3ccc(Cl)s3)c(=O)c2)CC1	90.8%
O=C(NCC1COc2ccccc2O1)N1CCN(c2ccc(F)cc2)CC1 (centres unmarked)	92.8%
